tested.target: Sam68 N-terminal region (human, UniProt Q07666 1-96)
Sequence (Q07666 1-96): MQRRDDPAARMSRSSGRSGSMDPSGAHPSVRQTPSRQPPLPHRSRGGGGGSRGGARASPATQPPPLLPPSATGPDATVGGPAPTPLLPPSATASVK
test.summary: single-molecule nanoaperture optical tweezers
measured.endpoint: Kd

Lab note: measured Kd of GGGUGACACACUAGCUAUAGCAUUAAAAGACCGAGCAAGU (ssRNA) [G8.5 RNA] was ~8 µM
